Property: CC50 at 144 h; scope: individual compounds
# ASSAY OVERVIEW: Cytotoxicity against human HepG2.2.15 cells assessed as reduction in cell viability incubated for 6 days by CCK-8 assay
# Format: toxicity, cell-based, HepG2 2.2.15
# CONDITION NOTES: time 6 day
The response must be a number in µM with no trailing unit.

COc1cc2c(cc1OCC1COc3ccc([N+](=O)[O-])cc3O1)CC(C(C)C)n1cc(C(=O)O)c(=O)cc1-2 (centres undefined) :: 50
COc1cc2c(cc1OCC1COc3ccc(Br)cc3O1)CC(C(C)C)n1cc(C(=O)O)c(=O)cc1-2 (centres undefined) :: 11.6
COc1cc2c(cc1OCC1COc3cc(Cl)ccc3O1)CC(C(C)C)n1cc(C(=O)O)c(=O)cc1-2 (centres undefined) :: 10.6
COc1cc2c(cc1OCc1ccc3c(c1)OCCO3)CC(C(C)C)n1cc(C(=O)O)c(=O)cc1-2 (centres undefined) :: 34.7
COc1cc2c(cc1OCC1COc3cc(Br)ccc3O1)CC(C(C)C)n1cc(C(=O)O)c(=O)cc1-2 (centres undefined) :: 34.7

Query compound follows.
Could you share which CC50 at 144 h value was measured for COc1cc2c(cc1OCC1COc3ccc(C)cc3O1)CC(C(C)C)n1cc(C(=O)O)c(=O)cc1-2 (centres undefined) ?
34.7

###

# ASSAY OVERVIEW: Elimination half life in BALB/c mouse at 10 mg/kg, po measured up to 24 hrs by HPLC analysis
# Type: ADME, organism-based
# CONDITION NOTES: in vivo, read-out: beta t1/2 (converted)
MEASURED ATTRIBUTE: half-life
State the value with its unit after it.

Could you share which half-life value was measured for COc1cc2c(cc1OCC1CCCO1)CC(C(C)C)n1cc(C(=O)O)c(=O)cc1-2 (stereo not given) ?
39.6 min

Another compound to check: COc1cc2c(cc1OCC1COc3cccnc3O1)CC(C(C)C)n1cc(C(=O)O)c(=O)cc1-2 (stereo not given)
43.2 min

Another compound to check: COCCCOc1cc2c(cc1OC)-c1cc(=O)c(C(=O)O)cn1C(C(C)C)C2 (racemic)
51 min

Another compound to check: COc1cc2c(cc1OCC1COc3ccc(F)cc3O1)CC(C(C)C)n1cc(C(=O)O)c(=O)cc1-2 (stereo not given)
101 min

Another compound to check: COc1cc2c(cc1OCc1ccc3c(c1)OCO3)CC(C(C)C)n1cc(C(=O)O)c(=O)cc1-2 (stereo not given)
82.2 min

###

# ASSAY OVERVIEW: Cytotoxicity against human HepG2.2.15 cells assessed as reduction in cell viability incubated for 6 days by CCK-8 assay
# Type: toxicity, cell-based, HepG2 2.2.15
# CONDITION NOTES: time 6 day
Property: CC50 at 144 h; scope: individual molecules
The response must be a number in µM with no trailing unit.

Reference set, count: 2
COc1cc2c(cc1OCCC1COc3ccccc3O1)CC(C(C)C)n1cc(C(=O)O)c(=O)cc1-2 (configuration not stated) :: 11.6
COc1cc2c(cc1OCC1COc3c(F)cccc3O1)CC(C(C)C)n1cc(C(=O)O)c(=O)cc1-2 (configuration not stated) :: 16.7

Could you share which CC50 at 144 h value was measured for COc1cc2c(cc1OCC1COc3cc(C)ccc3O1)CC(C(C)C)n1cc(C(=O)O)c(=O)cc1-2 (configuration not stated) ?
11.6

Another molecule to check: COc1ccc2c(c1)OC(COc1cc3c(cc1OC)-c1cc(=O)c(C(=O)O)cn1C(C(C)C)C3)CO2 (configuration not stated)
31.9

Another molecule to check: COc1cc2c(cc1OCC1COc3ccc(Cl)cc3O1)CC(C(C)C)n1cc(C(=O)O)c(=O)cc1-2 (configuration not stated)
11.6

###

# ASSAY OVERVIEW: Cytotoxicity against human HepG2.2.15 cells assessed as reduction in cell viability incubated for 6 days by CCK-8 assay
# Assay type: toxicity, cell-based, HepG2 2.2.15
# CONDITION NOTES: time 6 day
MEASURED ATTRIBUTE: CC50 at 144 h (µM)
The response must be a number in µM with no trailing unit.

COc1cc2c(cc1OCC1COc3cc(F)ccc3O1)CC(C(C)C)n1cc(C(=O)O)c(=O)cc1-2 (centres undefined) :: 11.6
COc1cc2c(cc1OCC1COc3c(Cl)cccc3O1)CC(C(C)C)n1cc(C(=O)O)c(=O)cc1-2 (centres undefined) :: 11.6
COc1cc2c(cc1OCC1COc3ccc(F)cc3O1)CC(C(C)C)n1cc(C(=O)O)c(=O)cc1-2 (centres undefined) :: 34.7

Could you share which CC50 at 144 h value was measured for COc1cc2c(cc1OCC1COc3cccc(F)c3O1)CC(C(C)C)n1cc(C(=O)O)c(=O)cc1-2 (centres undefined) ?
21.5

Another compound to check: COc1cc2c(cc1OCC1COc3cccc(Cl)c3O1)CC(C(C)C)n1cc(C(=O)O)c(=O)cc1-2 (centres undefined)
11.6

###

Property: pEC50; scope: individual compounds
# Tested on: Hepatitis B virus
# ASSAY OVERVIEW: Antiviral activity against HBV infected in human HepG2.2.15 cells assessed as reduction in HBeAg level in cellular supernatant by luminescence based microplate reader analysis
# Assay type: functional, organism-based
Value format note: pEC50 is -log10 of concentration (mol/L); just state the number.

COCCCOc1cc2c(cc1OC)-c1cc(=O)c(C(=O)O)cn1[C@@H](C(C)C)C2 :: 5.49
COCCCOc1cc2c(cc1OC)-c1cc(=O)c(C(=O)O)cn1C(C(C)C)C2 (racemic) :: 7.74
COc1cc2c(cc1OC[C@@H]1COc3cccnc3O1)C[C@@H](C(C)C)n1cc(C(=O)O)c(=O)cc1-2 :: 7.15
COc1cc2c(cc1OC[C@H]1CCCO1)C[C@@H](C(C)C)n1cc(C(=O)O)c(=O)cc1-2 :: 6.66

Query compound follows.
Could you share which pEC50 value was measured for COc1cc2c(cc1OC[C@H]1COc3cccnc3O1)C[C@H](C(C)C)n1cc(C(=O)O)c(=O)cc1-2 ?
4.89

###

# ASSAY OVERVIEW: Cmax in BALB/c mouse at 10 mg/kg, po measured up to 24 hrs by HPLC analysis
# Assay type: ADME, organism-based
# Parameters: dose 10 mg/kg, time < 24 hrs, route po
# CONDITION NOTES: in vivo
TRUE if Cmax is below 3000 nM. FALSE if not; exact matches included in FALSE.

Check out these entries, answers already filled in.
COc1cc2c(cc1OCC1COc3ccc(F)cc3O1)CC(C(C)C)n1cc(C(=O)O)c(=O)cc1-2 (stereo not given) :: TRUE
COc1cc2c(cc1OCc1ccc3c(c1)OCO3)CC(C(C)C)n1cc(C(=O)O)c(=O)cc1-2 (stereo not given) :: TRUE
COc1cc2c(cc1OCC1CCCO1)CC(C(C)C)n1cc(C(=O)O)c(=O)cc1-2 (stereo not given) :: FALSE

Here is another compound to look at.
Hello, I'm reviewing records and need to know if Cmax of COCCCOc1cc2c(cc1OC)-c1cc(=O)c(C(=O)O)cn1C(C(C)C)C2 (racemic) is below 3000 nM. Could you check?
FALSE

###

# ASSAY OVERVIEW: MRT (0 to t) in BALB/c mouse at 10 mg/kg, po measured up to 24 hrs by HPLC analysis
# Type: ADME, organism-based
# CONDITION NOTES: in vivo
MEASURED ATTRIBUTE: MRT last at 24 h (h)
The response must be a number in h with no trailing unit.

COc1cc2c(cc1OCC1COc3ccc(F)cc3O1)CC(C(C)C)n1cc(C(=O)O)c(=O)cc1-2 (stereo not given) :: 1.86
COc1cc2c(cc1OCc1ccc3c(c1)OCO3)CC(C(C)C)n1cc(C(=O)O)c(=O)cc1-2 (stereo not given) :: 1.68
COc1cc2c(cc1OCC1COc3cccnc3O1)CC(C(C)C)n1cc(C(=O)O)c(=O)cc1-2 (stereo not given) :: 0.88
COCCCOc1cc2c(cc1OC)-c1cc(=O)c(C(=O)O)cn1C(C(C)C)C2 (racemic) :: 1.13

Query molecule follows.
Could you share which MRT last at 24 h value was measured for COc1cc2c(cc1OCC1CCCO1)CC(C(C)C)n1cc(C(=O)O)c(=O)cc1-2 (stereo not given) ?
1.09

###

# ASSAY OVERVIEW: AUC (0 to t) in BALB/c mouse at 10 mg/kg, po measured up to 24 hrs by HPLC analysis
# Assay type: ADME, organism-based
# Design: dose 10 mg/kg, time < 24 hrs, route po
# CONDITION NOTES: in vivo
Label criterion met when AUC(0-t) at 24 h >= 3 µM·h; otherwise criterion not met.

COc1cc2c(cc1OCC1COc3cccnc3O1)CC(C(C)C)n1cc(C(=O)O)c(=O)cc1-2 (stereo not given) :: criterion not met
COc1cc2c(cc1OCC1COc3ccc(F)cc3O1)CC(C(C)C)n1cc(C(=O)O)c(=O)cc1-2 (stereo not given) :: criterion met
COCCCOc1cc2c(cc1OC)-c1cc(=O)c(C(=O)O)cn1C(C(C)C)C2 (racemic) :: criterion met
COc1cc2c(cc1OCc1ccc3c(c1)OCO3)CC(C(C)C)n1cc(C(=O)O)c(=O)cc1-2 (stereo not given) :: criterion met

Here is another compound to look at.
Item COc1cc2c(cc1OCC1CCCO1)CC(C(C)C)n1cc(C(=O)O)c(=O)cc1-2 (stereo not given) with AUC(0-t) at 24 h of 3 µM·h or above?
criterion met
